# test_name: HDX of amide protons by NMR in CDCl3:CD3OD (8:2)
# stated_conditions: 20% CD3OD in CDCl3
Starred links: 1 amine or outer side, 2 acyl side, 3 side chain; linkers in the order of their positions; H or OH if unused. Non-standard residues stand in square brackets, D forms with d. Residues, ends and D or L forms follow the SMILES beside them. X1 = CC(C)C[C@H](NC(=S)[C@H](Cc1ccc(O)cc1)N[*:1])C(=O)[*:2]; X2 = CC(C)C[C@H](NC(=S)[C@@H](CC(C)C)N[*:1])C(=O)[*:2]; X3 = CC(C)C[C@H](N[*:1])C(=S)N[C@H](CC(C)C)C(=O)[*:2]
Half-life of Leu3 amide proton (HDX) reference

compound	Half-life of Leu3 amide proton (HDX)
CC(C)C[C@@H]1NC(=O)[C@@H](CC(C)C)NC(=O)[C@H](CC(C)C)NC(=S)[C@H](Cc2ccc(O)cc2)NC(=O)[C@H]2CCCN2C(=O)[C@H](CC(C)C)NC1=O [10e] (cyclo(LL[dP][X1][dL]))	> 24 h
CC(C)C[C@@H]1NC(=O)[C@H](Cc2ccc(O)cc2)NC(=O)[C@H]2CCCN2C(=O)[C@H](CC(C)C)NC(=O)[C@H](CC(C)C)NC(=O)[C@@H](CC(C)C)NC1=O [compound 10, cyclo(-D-Leu^1-Leu-Leu-D-Pro-Tyr-Leu^6-)] (cyclo(LL[dP]YL[dL]))	> 24 h
CC(C)C[C@@H]1NC(=O)[C@@H](CC(C)C)NC(=S)[C@H](CC(C)C)NC(=O)[C@H](Cc2ccc(O)cc2)NC(=O)[C@H]2CCCN2C(=O)[C@H](CC(C)C)NC1=O [10f] (cyclo(LL[dP]Y[X3]))	3.27 h
CC(C)C[C@@H]1NC(=O)[C@H](Cc2ccc(O)cc2)NC(=O)[C@H]2CCCN2C(=O)[C@H](CC(C)C)NC(=O)[C@H](CC(C)C)NC(=S)[C@@H](CC(C)C)NC1=O [10a] (cyclo(L[dP]YL[X2]))	> 24 h
